Examples of compounds with documented GI50 follow.
- System: RPMI-8226
- assay summary: NCI tumour cell line growth inhibition, 48 h
Calls of active or inactive are those of the source. Cut-off read from the data, not from the text of the source: active = GI50 up to about 1.1 µM and inactive = higher.
measure name: GI50

>>> measurement("CC(C)CC1N=C(OCc2ccccc2)OC1=O (stereo not drawn)")
"> 100 µM (inactive)"
>>> measurement("Cc1nc(N)sc1/N=N/c1ccccc1Br")
"65.3 µM (inactive)"
>>> measurement("Cc1nn2c(=O)c([N+](=O)[O-])c(/C=C/c3ccc(F)cc3)nc2s1")
"3.51 µM (inactive)"

* * *

- Test system: OVCAR-4
- assay summary: NCI tumour cell line growth inhibition, 48 h
Active and inactive are the calls of the source. Cut-off read from the data, not from the text of the source: active = GI50 up to about 1.1 µM and inactive = higher.
measure name: GI50

>>> measurement("Clc1ccc(CCN2CCN(CCCc3ccccc3)CC2)cc1Cl")
"16.3 µM (inactive)"
>>> measurement("NC(Cc1ccccc1)C(=O)NC(Cc1ccccc1)NC(=O)C(Cc1c[nH]c2ccccc12)C(=O)O (stereo not given)")
"> 100 µM (inactive)"
>>> measurement("C/C=C\\C(CC(=O)NCCc1c[nH]c2ccccc12)CC(=O)OC (stereo not given)")
"> 100 µM (inactive)"
>>> measurement("O=C1OC(C2Cc3cc4c(cc3C2=O)CCC4)c2ccccc21 (stereo not given)")
"78.3 µM (inactive)"
>>> measurement("COc1cccc(CC2Cc3ccccc3CC(=O)N2)c1 (stereo not given)")
"> 100 µM (inactive)"

* * *

- System: IGROV-1
- assay summary: NCI tumour cell line growth inhibition, 48 h
Active and inactive are the calls of the source. Rule as the data show it: active = GI50 up to about 1.1 µM and inactive = higher.
Outcome codes: active, inactive

>>> classification("CCSC12CC3c4cccc5c4C(CN5C(=O)c4ccccc4)CC3(O1)N(C)C2=O (stereo unspecified)")
"inactive"
>>> classification("CN(C)c1ncc(-c2c[nH]c3ccccc23)nc1-c1c[nH]c2ccccc12")
"inactive"
>>> classification("O=C1/C(=C/C=C/c2ccccc2)N=C(c2ccccc2)N1c1ccc(S(=O)(=O)Nc2nccs2)cc1")
"inactive"
>>> classification("CCOC(=O)C(=O)C(/C(=N/N(C)C)C(=O)Nc1ccc(C)cc1C)c1nc2ccccc2nc1O (stereo unspecified)")
"inactive"
>>> classification("CC1(C)OC[C@@H]([C@H](C=O)OCc2ccccc2)O1")
"inactive"
>>> classification("N#Cc1c(-c2ccc([N+](=O)[O-])cc2)cc(-c2ccc(Nc3ccnc4cc(Cl)ccc34)cc2)[nH]c1=O")
"inactive"
>>> classification("CN(C(=O)C12C3C4C5C3C1(C(=O)O)C5C42)C(C)(C)C (stereo unspecified)")
"inactive"
>>> classification("c1ccc2c(c1)Sc1nccc3ccnc-2c13")
"inactive"
>>> classification("c1ccc(CSc2nc(N3CCOCC3)c3cn[nH]c3n2)cc1")
"inactive"
>>> classification("C=C[C@@]1(C)CC2(C=C(CO)C(O)O2)Oc2c1c(=O)oc1cccc(C)c21 (stereo partly specified)")
"inactive"
>>> classification("O=C1CCC2C(O)c3cc4c(cc3C(c3ccc5c(c3)OCO5)N12)OCO4 (stereo unspecified)")
"inactive"
>>> classification("NN/C(=N\\S(=O)(=O)c1cc(Cl)c(Oc2ccc([N+](=O)[O-])cc2Cl)c(Cl)c1)Nc1ccc(Cl)cc1")
"inactive"
>>> classification("COc1ccc(/C=N/N=C(\\N)NO)cc1O")
"inactive"
>>> classification("Cc1ccccc1C(C#N)/C(=N/NC(=O)c1cc2ccccc2cc1O)C(=O)Nc1cccc(Cl)c1 (stereo unspecified)")
"inactive"
>>> classification("C#CC1(O)C(COP(=O)(O)OCC2OC(n3ccc(NCCCCCCCCCCCCCCCCCC)nc3=O)C(O)C2O)OC(n2ccc(N)nc2=O)C1O (stereo unspecified)")
"active"
>>> classification("Cc1nc(C)c(N2CCN([N+](=O)[O-])CC2)c(O)n1")
"inactive"

* * *

- Tested on: U-251
- assay summary: NCI tumour cell line growth inhibition, 48 h
Calls of active or inactive are those of the source. Cut-off read from the data, not from the text of the source: active = GI50 up to about 1.1 µM and inactive = higher.
Outcomes: active, inactive

>>> classification("O=[N+]([O-])c1ccc2c(c1)nc(Cc1ccc(Cl)cc1)n2C[C@@H]1CCCN2CCCCC12 (stereo partly drawn)")
"inactive"
>>> classification("Cc1cccc(N2C(=O)C(=O)C(c3nc4ccccc4s3)/C(=N/NC(=S)NN)C2=O)c1C (stereo not drawn)")
"inactive"
>>> classification("NCCCCCC(CCN)SCC1OC(n2cnc3c(N)ncnc32)C(O)C1O (stereo not drawn)")
"inactive"
>>> classification("O=C1NCC2(CCN(CC3COc4ccccc4O3)CC2)N1c1ccccc1 (stereo not drawn)")
"inactive"
>>> classification("O=C1OC(c2ccc(O)c(Cl)c2)(c2ccc(O)c(Cl)c2)c2ccc(Br)c3cccc1c23.O=C1OC(c2ccc(O)c(Cl)c2)(c2ccc(O)c(Cl)c2)c2cccc3c(Br)ccc1c23")
"inactive"
>>> classification("CCOC(=O)C(C)c1nc2cc3cccnc3c(Cl)c2[nH]c1=O (stereo not drawn)")
"inactive"
>>> classification("C=C1C(=O)OC2C1C(=O)C/C(C)=C/CCC1(C)OC21 (stereo not drawn)")
"inactive"
>>> classification("COc1cccc(C2C(C(=O)Nc3cc(=O)n(C)c(=O)n3C)=C(C)NC(C)=C2C(=O)Nc2cc(=O)n(C)c(=O)n2C)c1O")
"inactive"
>>> classification("CC(=O)O[C@H]1CCc2c(cc(N)c3c2C(=O)C[C@]2(C)C([C@H](C)CCCC(C)C)CCC32C)C1(C)C (stereo partly drawn)")
"inactive"
>>> classification("CN(C)c1ccc2c(NCCCCCCNc3ccnc4cc(N(C)C)ccc34)ccnc2c1")
"inactive"
>>> classification("OCc1c[te]c(-c2ccccc2)c1")
"inactive"
>>> classification("CC(=O)Oc1ccc(/C=C/C(=O)O[C@@H](C(=O)O)[C@@H](OC(=O)/C=C/c2ccc(OC(C)=O)c(OC(C)=O)c2)C(=O)O)cc1OC(C)=O")
"inactive"
>>> classification("S=C1Nc2ccccc2SC1c1ccccc1 (stereo not drawn)")
"inactive"
>>> classification("NC(=S)SCCC(=O)O")
"inactive"
>>> classification("CCCCCCCCCCCCNC(=O)NCC(OCC)OCC")
"inactive"
>>> classification("N#Cc1nc(-c2ccccc2O)oc1N")
"inactive"
>>> classification("COC(=O)c1ccc(OCCn2nnc(C(=O)NN)c2C(=O)NN)cc1")
"inactive"
>>> classification("Nc1nc(Cl)cc(NCC2(CO)CC(CCCc3ccccc3)C2)n1 (stereo not drawn)")
"inactive"
>>> classification("CC(Oc1ccccc1Cl)C(=O)NN1C(=O)CC(=O)N(c2ccccc2)C1=S (stereo not drawn)")
"inactive"
>>> classification("COc1c(OC2OC(CO)C(O)C(O)C2O)cc2c(c1OC)-c1ccc(OC)c(=O)cc1[C@@H](NC(C)=O)CC2 (stereo partly drawn)")
"inactive"
>>> classification("O=C1/C(=C/C=C/c2ccccc2)N=C(c2ccccc2)N1c1ccc(S(=O)(=O)Nc2nccs2)cc1")
"inactive"
>>> classification("CC[C@@]1(O)C(=O)OCc2c1c(Cl)c1n(c2=O)Cc2cc3ccccc3nc2-1")
"active"
>>> classification("COC(=O)[C@]1(c2cc3ccccc3[nH]2)CC2CNC1C1OC(C)(C)OC21 (stereo partly drawn)")
"inactive"
>>> classification("O=C(OCCN1CCCCC1)C(c1ccccc1)C1(O)CCSCC1 (stereo not drawn)")
"inactive"
>>> classification("C[C@H]1ON2CCC[C@@H]2[C@@H]1C(=O)N1C2CC3CCC2(CS1(=O)=O)C3(C)C (stereo partly drawn)")
"inactive"
>>> classification("COc1cc(C2S/C(=C/c3ccccc3)C(=O)N2c2cccc(Cl)c2)cc(OC)c1OC (stereo not drawn)")
"inactive"
>>> classification("CN(C)Cc1c(O)ccc2c1c1c(n2C)C(=O)c2ccccc2C1=O")
"inactive"
>>> classification("O=C(NC12CC3CC(CC(F)(C3)C1)C2)c1ccccc1")
"inactive"
>>> classification("O=C1CSC(/C(=C/c2ccccc2)c2nc3ccccc3[nH]2)=N1")
"inactive"
>>> classification("CC(=O)C(C(=O)c1ccc(C)cc1)[C@H]1OC(C)(C)O[C@H]1[C@H]1COC(C)(C)O1 (stereo partly drawn)")
"inactive"
>>> classification("COc1ccc(/C=c2/sc3n(c2=O)C(c2ccccc2)C2(O)CCCCC2N=3)cc1 (stereo not drawn)")
"inactive"
>>> classification("NC(Cc1n[nH]c2ccccc12)C(=O)O (stereo not drawn)")
"inactive"
>>> classification("CN(C)/N=N/c1ccc(S(N)(=O)=O)cc1")
"inactive"

* * *

- Tested on: HCT-116
- assay summary: NCI tumour cell line growth inhibition, 48 h
The source made the active and inactive calls. Cut-off read from the data, not from the text of the source: active = GI50 up to about 1.1 µM and inactive = higher.
As shown below, each of these compounds has a reported GI50 value.
measure name: GI50

>>> measurement("CCOC(=O)C(=CNc1ccc(N(C2=NCC(C)S2)c2ccc(F)c(Cl)c2)cc1)C(=O)OCC (stereo not drawn)")
"16 µM (inactive)"
>>> measurement("CN(C(=O)C12C3C4C5C3C1(C(=O)O)C5C42)C(C)(C)C (stereo not drawn)")
"34.2 µM (inactive)"
>>> measurement("O=C(N/N=C/c1ccccc1)c1c(-c2cccnc2)cnc2ccccc12")
"52.5 µM (inactive)"
